Data origin, for the record: patent US20240261333A1

Target: T1, B3GNT2 (Homo sapiens, UniProt Q9NY97)
T1 construct: The respective ORFs of candidate genes [CD274 (NM_014143), MCL1 (NM_021960), JUNB (NM_002229), and B3GNT2 (NM_006577)] were synthesized; expressed in transfected cells; host or cells: A375 melanoma cells (lentiviral ORF overexpression)
T1 sequence (Q9NY97 1-397): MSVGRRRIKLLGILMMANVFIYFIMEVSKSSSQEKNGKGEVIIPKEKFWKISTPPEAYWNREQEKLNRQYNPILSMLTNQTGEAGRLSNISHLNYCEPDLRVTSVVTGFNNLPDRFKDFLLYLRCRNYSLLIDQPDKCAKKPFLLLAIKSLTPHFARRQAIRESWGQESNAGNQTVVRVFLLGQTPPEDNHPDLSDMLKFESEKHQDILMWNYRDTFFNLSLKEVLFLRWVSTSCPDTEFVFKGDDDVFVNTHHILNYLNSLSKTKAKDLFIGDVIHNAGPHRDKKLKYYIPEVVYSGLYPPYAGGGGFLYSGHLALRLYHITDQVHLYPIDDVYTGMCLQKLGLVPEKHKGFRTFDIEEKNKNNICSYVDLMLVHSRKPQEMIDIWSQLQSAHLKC
Assay: Co-IP of FLAG-tagged B3GNT2 followed by mass spectrometry
Assay type: cell-based
Details: Co-IP followed by mass spectrometry of B3GNT2; N-term tag, IgG pull-down
# key: entry, value: N-term IgG
Response field accepts a number only; no unit should be typed.

Example results:
molecule	N-term IgG
NCCRP1 (protein) MEEVREGHALGGGMEADGPASLQELPPSPRSPSPPPSPPPLPSPPSLPSPAAPEAPELPEPAQPSEAHARQLLLEEWGPLSGGLELPQRLTWKLLLLRRPLYRNLLRSPNPEGINIYEPAPPTGPTQRPLETLGNFRGWYIRTEKLQQNQSWTVKQQCVDLLAEGLWEELLDDEQPAITVMDWFEDSRLDACVYELHVWLLAADRRTVIAQHHVAPRTSGRGPPGRWVQVSHVFRHYGPGVRFIHFLHKAKNRMEPGGLRRTRVTDSSVSVQLRE	4
SPARC (protein) APQQEALPDETEVVEETVAEVTEVSVGANPVQVEVGEFDDGAEETEEEVVAENPCQNHHCKHGKVCELDENNTPMCVCQDPTSCPAPIGEFEKVCSNDNKTFDSSCHFFATKCTLEGTKKGHKLHLDYIGPCKYIPPCLDSELTEFPLRMRDWLKNVLVTLYERDEDNNLLTEKQKLRVKKIHENEKRLEAGDHPVELLARDFEKNYNMYIFPVHWQFGQLDQHPIDGYLSHTELAPLRAPLIPMEHCTTRFFETCDLDNDKYIALDEWAGCFGIKQKDIDKDLVI	0
IL13RA2 (protein) DTEIKVNPPQDFEIVDPGYLGYLYLQWQPPLSLDHFKECTVEYELKYRNIGSETWKTIITKNLHYKDGFDLNKGIEAKIHTLLPWQCTNGSEVQSSWAETTYWISPQGIPETKVQDMDCVYYNWQYLLCSWKPGIGVLLDTNYNLFYWYEGLDHALQCVDYIKADGQNIGCRFPYLEASDYKDFYICVNGSSENKPIRSSYFTFQLQNIVKPLPPVYLTFTRESSCEIKLKWSIPLGPIPARCFDYEIEIREDDTTLVTATVENETYTLKTTNETRQLCFVVRSKVNIYCSDDGIWSEWSDKQCWEGEDLSKKTLLRFWLPFGFILILVIFVTGLLLRKPNTYPKMIPEFFCDT	0

--- query ---
The measured N-term IgG associated with PSMA3 (protein) SSIGTGYDLSASTFSPDGRVFQVEYAMKAVENSSTAIGIRCKDGVVFGVEKLVLSKLYEEGSNKRLFNVDRHVGMAVAGLLADARSLADIAREEASNFRSNFGYNIPLKHLADRVAMYVHAYTLYSAVRPFGCSFMLGSYSVNDGAQLYMIDPSGVSYGYWGCAIGKARQAAKTEIEKLQMKEMTCRDIVKEVAKIIYIVHDEVKDKAFELELSWVGELTNGRHEIVPKDIREEAEKYAKESLKEEDESDDDNM reads 0
